# key: entry, value: CC1 (cytotoxic concentration)
Tested on: SH-SY5Y human neuroblastoma cells
condition: absence of H2O2, viability below 80%

>  <molecule>
Cc1cc(=O)c(O)c(C(N2CCN(Cc3ccccc3)CC2)C(F)(F)F)n1C (stereo not shown)

>  <unit_name>
µM

>  <CC1 (cytotoxic concentration)>
40

$$$$
>  <molecule>
Cc1c(O)c(=O)ccn1CC(F)(F)F

>  <unit_name>
µM

>  <CC1 (cytotoxic concentration)>
320

$$$$
>  <molecule>
Cn1cc(Cl)c(=O)c(O)c1C(N1CCCCC1)C(F)(F)F (stereo not shown)

>  <unit_name>
µM

>  <CC1 (cytotoxic concentration)>
10

$$$$
>  <molecule>
CN(C)Cc1c(O)c(=O)ccn1CC(F)(F)F

>  <unit_name>
µM

>  <CC1 (cytotoxic concentration)>
160

$$$$
>  <molecule>
CN(C)Cc1cc(=O)c(O)c(CC(F)(F)F)n1C

>  <unit_name>
µM

>  <CC1 (cytotoxic concentration)>
80

$$$$
>  <molecule>
Cc1c(O)c(=O)c(C(n2ccnc2)C(F)(F)F)cn1C (stereo not shown)

>  <unit_name>
µM

>  <CC1 (cytotoxic concentration)>
10

$$$$
>  <molecule>
Cc1c(O)c(=O)ccn1CC(F)F

>  <unit_name>
µM

>  <CC1 (cytotoxic concentration)>
80

$$$$
>  <molecule>
Cc1c(Cl)c(=O)c(O)c(C(O)C(F)(F)F)n1C (stereo not shown)

>  <unit_name>
µM

>  <CC1 (cytotoxic concentration)>
40

$$$$
>  <molecule>
Cc1cc(=O)c(O)c(C(N2CCN(c3ccccn3)CC2)C(F)(F)F)n1C (stereo not shown)

>  <unit_name>
µM

>  <CC1 (cytotoxic concentration)>
80

$$$$
>  <molecule>
CN1CCN(C(c2c(O)c(=O)ccn2C)C(F)(F)F)CC1 (stereo not shown)

>  <unit_name>
µM

>  <CC1 (cytotoxic concentration)>
40

$$$$

* * *

# key: entry, value: Brain AUC_D_obs
test_summary: Pharmacokinetics following oral administration to rats
Format: in vivo, male Sprague Dawley rats
condition: rat, oral 50 mg/kg in 0.5% CMC, dose-normalized
result_type: Brain AUC_D_obs (kg·µg·h/mL/mg)

>  <molecule>
Cn1ccc(=O)c(O)c1C(N1CCOCC1)C(F)(F)F (stereo not shown) [Apo7448]

>  <result_type>
Brain AUC_D_obs

>  <recorded_measurement>
0.486

$$$$
>  <molecule>
Cc1c(O)c(=O)c(C(N2CCOCC2)C(F)(F)F)cn1C (stereo not shown) [Apo7435]

>  <result_type>
Brain AUC_D_obs

>  <recorded_measurement>
0.122

$$$$
>  <molecule>
Cc1[nH]cc(C(N2CCOCC2)C(F)(F)F)c(=O)c1O (stereo not shown) [Apo7433]

>  <result_type>
Brain AUC_D_obs

>  <recorded_measurement>
0.039

$$$$
>  <molecule>
O=c1ccn(CC(F)(F)F)c(CN2CCOCC2)c1O [Apo7323]

>  <result_type>
Brain AUC_D_obs

>  <recorded_measurement>
1.010

$$$$

* * *

# key: entry, value: CC1 (cytotoxic concentration)
Tested on: human neuroblastoma MC-65 cells
test_summary: cells
condition: MC-65, presence of TET, viability below 80%
result_type: CC1 (cytotoxic concentration) (µM)

>  <compound>
CN(C)C(c1c(O)c(=O)c(Cl)cn1C)C(F)(F)F (stereo not shown) [Apo7060]

>  <inequality_operator>
=

>  <recorded_measurement>
40

$$$$
>  <compound>
Cn1cc(Cl)c(=O)c(O)c1C(N1CCCCC1)C(F)(F)F (stereo not shown) [Apo7061]

>  <inequality_operator>
=

>  <recorded_measurement>
40

$$$$
>  <compound>
CN(C)Cc1cc(=O)c(O)c(C(O)C(F)(F)F)n1C (stereo not shown) [Apo7022]

>  <inequality_operator>
=

>  <recorded_measurement>
10

$$$$
>  <compound>
Cn1ccc(=O)c(O)c1C(N1CCCCC1)C(F)(F)F (stereo not shown) [Apo7058]

>  <inequality_operator>
=

>  <recorded_measurement>
10

$$$$
>  <compound>
Cn1ccc(=O)c(O)c1C(NC1CC1)C(F)(F)F (stereo not shown) [Apo7074]

>  <inequality_operator>
=

>  <recorded_measurement>
10

$$$$
>  <compound>
CN(C)Cc1cc(=O)c(O)c(CC(F)(F)F)n1C [Apo7021]

>  <inequality_operator>
=

>  <recorded_measurement>
10

$$$$
>  <compound>
Cc1cc(=O)c(O)c(C(N2CCOCC2)C(F)(F)F)n1C (stereo not shown) [Apo7333]

>  <inequality_operator>
=

>  <recorded_measurement>
20

$$$$
>  <compound>
Cc1c(Cl)c(=O)c(O)c(CC(F)(F)F)n1C [Apo7040]

>  <inequality_operator>
=

>  <recorded_measurement>
40

$$$$
>  <compound>
Cc1c(O)c(=O)ccn1CC(F)F [Apo7069]

>  <inequality_operator>
=

>  <recorded_measurement>
80

$$$$
>  <compound>
Cn1cc(Cl)c(=O)c(O)c1CC(F)(F)F [Apo7066]

>  <inequality_operator>
=

>  <recorded_measurement>
80

$$$$
>  <compound>
Cc1c(Cl)c(=O)c(O)c(C(N(C)C)C(F)(F)F)n1C (stereo not shown) [Apo7059]

>  <inequality_operator>
=

>  <recorded_measurement>
10

$$$$
>  <compound>
C[C@H](NCc1cc(=O)c(O)c(C(O)C(F)(F)F)n1C)C(=O)O (stereo partly shown) [Apo7032]

>  <inequality_operator>
=

>  <recorded_measurement>
80

$$$$
>  <compound>
Cc1cc(=O)c(O)c(CN(C)C)n1CC(F)F [Apo7083]

>  <inequality_operator>
=

>  <recorded_measurement>
40

$$$$
>  <compound>
CN1CCN(C(c2c(O)c(=O)ccn2C)C(F)(F)F)CC1 (stereo not shown) [Apo7073]

>  <inequality_operator>
=

>  <recorded_measurement>
40

$$$$
>  <compound>
Cc1cc(=O)c(O)cn1CC(F)(F)F [Apo6994]

>  <inequality_operator>
>

>  <recorded_measurement>
80

$$$$
>  <compound>
O=c1ccn(CC(F)(F)F)c(CN2CCOCC2)c1O [Apo7323]

>  <inequality_operator>
=

>  <recorded_measurement>
80

$$$$
>  <compound>
Cc1cc(=O)c(O)c(C(N2CCN(c3ccccc3)CC2)C(F)(F)F)n1C (stereo not shown) [Apo7335]

>  <inequality_operator>
=

>  <recorded_measurement>
20

$$$$
>  <compound>
Cn1ccc(=O)c(O)c1C(C(F)F)N1CCCCC1 (stereo not shown) [Apo7319]

>  <inequality_operator>
=

>  <recorded_measurement>
40

$$$$
>  <compound>
CN(C)c1c(O)c(=O)cc(CC(F)(F)F)n1C [Apo7077]

>  <inequality_operator>
=

>  <recorded_measurement>
80

$$$$
>  <compound>
Cc1cc(=O)c(O)c(C(N2CCN(c3ccccn3)CC2)C(F)(F)F)n1C (stereo not shown) [Apo7336]

>  <inequality_operator>
=

>  <recorded_measurement>
10

$$$$
>  <compound>
CN(C)C(c1c(O)c(=O)ccn1C)C(F)(F)F (stereo not shown) [Apo7041]

>  <inequality_operator>
=

>  <recorded_measurement>
10

$$$$
>  <compound>
Cc1c(O)c(=O)c(C(N(C)C)C(F)(F)F)cn1C (stereo not shown) [Apo7053]

>  <inequality_operator>
=

>  <recorded_measurement>
40

$$$$
>  <compound>
CN(C)Cc1c(O)c(=O)ccn1CC(F)(F)F [Apo7067]

>  <inequality_operator>
=

>  <recorded_measurement>
80

$$$$
>  <compound>
C#CCN(C)C(c1c(O)c(=O)ccn1C)C(F)(F)F (stereo not shown) [Apo7057]

>  <inequality_operator>
=

>  <recorded_measurement>
20

$$$$
>  <compound>
Cc1[nH]cc(C(N2CCOCC2)C(F)(F)F)c(=O)c1O (stereo not shown) [Apo7433]

>  <inequality_operator>
=

>  <recorded_measurement>
40

$$$$
>  <compound>
Cc1cc(=O)c(O)c(CN2CCCCC2)n1CC(F)(F)F [Apo7071]

>  <inequality_operator>
=

>  <recorded_measurement>
40

$$$$
>  <compound>
Cc1c(O)c(=O)c(C(n2ccnc2)C(F)(F)F)cn1C (stereo not shown) [Apo7055]

>  <inequality_operator>
=

>  <recorded_measurement>
40

$$$$
>  <compound>
Cn1ccc(=O)c(O)c1C(C(F)F)N1CCN(c2ccccn2)CC1 (stereo not shown) [Apo7316]

>  <inequality_operator>
=

>  <recorded_measurement>
10

$$$$
